Entry source: ChEMBL document CHEMBL1124357

species on record: Cavia porcellus; assay: Relative potency to that of normorphine in the electrically stimulated Guinea pig ileum test; format: functional
Give measured Relative potency for each item. Keep answers brief.

Below, 5 molecules whose answers are already recorded.
CCC(=O)C(CC(C)N(C)C)(c1ccccc1)c1ccccc1 (configuration not stated)    0.91
CN1CCC2(CC1)c1ccccc1Oc1c(O)cccc12    0.175
CN1CCC2(CC1)c1ccccc1Oc1c(N)cccc12    0.055
CN1CCC2(CC1)c1cccc(O)c1Oc1cccc(Cl)c12    0.031
CN1CCC2(CC1)c1ccccc1Oc1c(S)cccc12    0.001

I need Relative potency for every entry listed below, if you could help.
1. CN1CCC2(CC1)c1cccc(O)c1Oc1cccc(F)c12
2. COc1cccc2c1C1(CCN(C)CC1)c1cccc(O)c1O2
3. Cc1cccc2c1C1(CCN(C)CC1)c1cccc(O)c1O2

Response:
0.16
0.094
0.237

I need Relative potency for every entry listed below, if you could help.
1. c1ccc(NCCN2CCC3(CC2)c2ccccc2Oc2ccccc23)cc1
2. CN1CCC2(CC1)c1ccccc1Oc1c(CO)cccc12
3. CC(=O)Nc1cccc2c1Oc1ccccc1C21CCN(C)CC1

Response:
1. 3.5
2. 0.004
3. 0.008

Request: Requested field: Relative potency. Item: CC(=O)Oc1cccc2c1Oc1ccccc1C21CCN(C)CC1
Response: 1
